GI50 values, listed per item
- Tested on: SF-539
- Assay overview: NCI tumour cell line growth inhibition, 48 h
Calls of active or inactive are those of the source. Rule as the data show it: active = GI50 up to about 1.1 µM and inactive = higher. *1 amine or outer side, *2 acyl side, *3 side chain or, on linkers, in order; H or OH if unused. Where a SMILES comes first, the peptide text is derived from it. Bridges are numbered along the chain shown (N, C = ends). [ ]: non-standard residue; d: D form. The star is where a group is joined. ξ: configuration not given here. ξOrn(4,5-diOH) = O=C(C(CC(O)C(O)N[*:3])N[*:1])[*:2]; ξhTyr(βξ-OH,γξ-OH) = NC(C(=O)O)C(O)C(O)c1ccc(O)cc1; ξPro(3ξ-OH,4ξ-Me) = CC1CNC(C(=O)O)C1O; X55 = CCCCC/C=C/C/C=C\CCCCCCCC(=O)*; Hyp = O=C(O)[CH]1C[CH](O)CN1

>  <Molecule>
CCCCC/C=C/C/C=C\CCCCCCCC(=O)NC1CC(O)C(O)NC(=O)C2C(O)C(C)CN2C(=O)C(C(C)O)NC(=O)C(C(O)C(O)c2ccc(O)cc2)NC(=O)C2CC(O)CN2C(=O)C(C(C)O)NC1=O (stereo not drawn) (X55-[ξOrn(4,5-diOH)]T[Hyp][ξhTyr(βξ-OH,γξ-OH)]T[ξPro(3ξ-OH,4ξ-Me)]; lactam 1-C; configuration not given here)

>  <GI50>
> 100 µM (inactive)

$$$$
>  <Molecule>
COC(=O)/C=C1/OC(c2ccccc2)=C(C)C1=O

>  <GI50>
17.4 µM (inactive)

$$$$
>  <Molecule>
CC(C)(N)C(=O)N[C@@H]1C(=O)N2[C@@H]1SC(C)(C)[C@@H]2C(=O)O

>  <GI50>
> 100 µM (inactive)

$$$$
>  <Molecule>
COc1ccc(-n2sc3ncc([N+](=O)[O-])cc3c2=O)cc1

>  <GI50>
> 100 µM (inactive)

$$$$
>  <Molecule>
COc1cc(O)c2c(c1)C(=O)c1cc3c(c(O)c1C2=O)C(OC1OC(C)C(O)C(O)C1OC)C(OC)C(C)(O)C3=O (configuration not stated)

>  <GI50>
1.85 µM (inactive)

$$$$
>  <Molecule>
CCOC(=O)c1nc2cc(C(F)(F)F)ccc2nc1Nc1ccc(OC)c(OC)c1

>  <GI50>
> 100 µM (inactive)

$$$$
>  <Molecule>
Cc1cc(S(N)(=O)=O)c(SCc2nc(N)nc(N(C)C)n2)cc1Cl

>  <GI50>
> 10 µM (inactive)

$$$$

* * *

GI50 values, listed per item
- System: LOX IMVI
- Assay overview: NCI tumour cell line growth inhibition, 48 h
Activity calls are given as the source filed them. Cut-off read from the data, not from the text of the source: active = GI50 up to about 1.1 µM and inactive = higher.
Property name: GI50

>  <Compound>
CC(C)(N)C(=O)N[C@@H]1C(=O)N2[C@@H]1SC(C)(C)[C@@H]2C(=O)O

>  <Result>
> 100 µM (inactive)

$$$$
>  <Compound>
C[C@]12CC[C@H]3[C@@H](CC=C4C[C@@H](N5CCCC5)CC[C@@]43C)[C@@H]1C[C@H](N1CCOCC1)[C@@H]2O

>  <Result>
> 10 µM (inactive)

$$$$
>  <Compound>
CC(C)Oc1c(N(Cc2ccccc2)c2ccccc2C2SCCCS2)c(=O)c1=O

>  <Result>
5.56 µM (inactive)

$$$$
>  <Compound>
O=C(CC1C=Cc2ccccc2N1C(=O)c1ccccc1)c1ccccc1 (stereo not given)

>  <Result>
23.6 µM (inactive)

$$$$
>  <Compound>
OCC1CCCCCCCCCCC12SCCCS2 (stereo not given)

>  <Result>
> 100 µM (inactive)

$$$$

* * *

- Test system: A549
- Assay overview: NCI tumour cell line growth inhibition, 48 h
Activity calls are given as the source filed them. Rule as the data show it: active = GI50 up to about 1.1 µM and inactive = higher.

>  <Molecule>
Cc1ccc(S(=O)(=O)N/C(=N\O)Nc2ccc(Cl)c(Cl)c2)cc1

>  <GI50>
13.3 µM (inactive)

$$$$
>  <Molecule>
CN(C)c1ccc(/C=C(\C#N)C(=O)c2ccccc2)cc1Br

>  <GI50>
> 100 µM (inactive)

$$$$
>  <Molecule>
Fc1ccccc1C1CC(c2ccc3ccccc3c2)=Nc2ccccc2S1 (configuration not stated)

>  <GI50>
> 100 µM (inactive)

$$$$
>  <Molecule>
CC(=O)CCCCC(=O)Nc1ccc(CC(NC(=O)OC(C)(C)C)C(=O)NCC(=O)OCc2ccccc2)cc1 (configuration not stated)

>  <GI50>
53.7 µM (inactive)

$$$$
>  <Molecule>
O=C(O)C1=C(CO)Oc2cc3c(cc2C1c1ccc2c(c1)OCO2)OCO3 (configuration not stated)

>  <GI50>
> 100 µM (inactive)

$$$$
>  <Molecule>
O=C(CCN1CCCCC1CCO)Nc1ccc2c(c1)C(=O)c1ccc(NC(=O)CCN3CCCCC3CCO)cc1C2=O (configuration not stated)

>  <GI50>
16.7 µM (inactive)

$$$$
>  <Molecule>
CC(=O)Nc1cccc(N2C(=O)/C(=C\c3cccc(Oc4ccccc4)c3)SC2c2ccccc2)c1 (configuration not stated)

>  <GI50>
94.8 µM (inactive)

$$$$
>  <Molecule>
COc1cc(-c2nccc3cc(OC)c(OC)cc23)ccc1O

>  <GI50>
> 100 µM (inactive)

$$$$
>  <Molecule>
Nc1cc(N2CCCC2)nc(=O)n1Cc1ccccc1

>  <GI50>
> 100 µM (inactive)

$$$$
>  <Molecule>
COC(=O)c1ccccc1CC1Cc2c(C)ccc(C)c2C1=O (configuration not stated)

>  <GI50>
40.2 µM (inactive)

$$$$
>  <Molecule>
O=C(c1ccccc1)c1ccc2[nH]c(-c3c(Cl)c(Cl)c(Cl)c(Cl)c3C(=O)N/N=C/c3ccccc3)nc2c1

>  <GI50>
27.7 µM (inactive)

$$$$
>  <Molecule>
CCOC(=O)c1nc2cc(C(F)(F)F)ccc2nc1Nc1ccc(C(=O)OC)s1

>  <GI50>
48.6 µM (inactive)

$$$$

* * *

- Test system: LOX IMVI
- Assay overview: NCI tumour cell line growth inhibition, 48 h
Calls of active or inactive are those of the source. Rule as the data show it: active = GI50 up to about 1.1 µM and inactive = higher.
Property name: GI50

>  <Smiles string>
N#Cc1c(-c2ccccc2)[nH]c2ccccc2c1=O

>  <Result>
> 100 µM (inactive)

$$$$
>  <Smiles string>
CCOC(=O)c1nc2cc(C(F)(F)F)ccc2nc1Nc1ccc(OC)c(OC)c1

>  <Result>
> 100 µM (inactive)

$$$$
>  <Smiles string>
N=C(c1ccccc1)N1CCCCC1

>  <Result>
> 100 µM (inactive)

$$$$
>  <Smiles string>
COP(=N[Si](C)(C)C)(OC)OC

>  <Result>
> 100 µM (inactive)

$$$$
>  <Smiles string>
COc1cc(Br)c(/C=N\c2cccc3ccc(OS(=O)(=O)c4ccc([N+](=O)[O-])cc4)cc23)cc1OC

>  <Result>
6.59 µM (inactive)

$$$$
>  <Smiles string>
C/C(Cc1ccccc1)=N\NC(N)=S

>  <Result>
> 100 µM (inactive)

$$$$
>  <Smiles string>
NC(=O)c1nnc2cc(F)ccc2c1N

>  <Result>
78.3 µM (inactive)

$$$$

* * *

- System: KM12
- Assay overview: NCI tumour cell line growth inhibition, 48 h
Active and inactive are the calls of the source. Cut-off read from the data, not from the text of the source: active = GI50 up to about 1.1 µM and inactive = higher.
Outcome codes: active, inactive

>  <Compound>
C=C(C)[C@@H]1CC[C@]2(C(=O)OC3OC(COC4OC(CO)C(OC5OC(C)C(O)C(O)C5O)C(O)C4O)C(O)C(O)C3O)CC[C@]3(C)[C@H](CC[C@@H]4[C@@]5(C)CC[C@H](O)[C@@](C)(CO)[C@@H]5CC[C@]43C)[C@@H]12 (some centres undefined)

>  <Group label>
active

$$$$
>  <Compound>
CCOP(=O)(COCCn1nc(Br)c(=O)[nH]c1=O)OCC

>  <Group label>
inactive

$$$$
>  <Compound>
COCCCNC(=O)C1C(=O)N(CCCOC)C(=O)/C1=N\N (centres undefined)

>  <Group label>
inactive

$$$$
>  <Compound>
O=C(c1ccccc1)c1sc2c(=O)c(C(=O)c3ccccc3)c(C(=O)c3ccccc3)sc2c(=O)c1C(=O)c1ccccc1

>  <Group label>
inactive

$$$$
>  <Compound>
Cc1csc2nc(-c3cc([N+](=O)[O-])c(Cl)cc3Cl)c(/C=N/N=C(N)N)n12

>  <Group label>
inactive

$$$$
>  <Compound>
NC(=O)NC(=O)c1cccc(NC(=O)CBr)c1

>  <Group label>
active

$$$$
>  <Compound>
Cc1cc(O)c(C(C)C)cc1SC#N

>  <Group label>
inactive

$$$$
>  <Compound>
CC1=NN(c2ccccc2Cl)C2(C1)SCC(=O)N2c1nc2ccccc2s1 (centres undefined)

>  <Group label>
inactive

$$$$
>  <Compound>
ClC(Cl)(Cl)C1=N[C@H]2[C@H](Br)[C@@H]3O[C@@H](c4ccccc4)[C@H](c4ccccc4)O[C@@H]3[C@H]2O1

>  <Group label>
inactive

$$$$
>  <Compound>
C=C1C(=O)OC2CC(=C)C3CC=C(C)C3CC12 (centres undefined)

>  <Group label>
inactive

$$$$
>  <Compound>
Cn1ncnc1CCc1ccccc1

>  <Group label>
inactive

$$$$
>  <Compound>
Cn1c(=O)c(/N=N/c2c(=O)n(C)c(=O)n3c2[nH]c2ccccc23)c2[nH]c3ccccc3n2c1=O

>  <Group label>
inactive

$$$$
>  <Compound>
O=C(NC1=NC2C=CC([N+](=O)[O-])=CC2S1)C(=O)Nn1c(S)nc2ccccc2c1=O (centres undefined)

>  <Group label>
inactive

$$$$
>  <Compound>
COc1cc2c(c(OC)c1)C(=O)O[C@H](C)CCCC/C=C/C2

>  <Group label>
inactive

$$$$
>  <Compound>
O=C1CC2OCC=C3CN4CCC56c7ccccc7N1C5C2C3CC46O (centres undefined)

>  <Group label>
inactive

$$$$
>  <Compound>
COc1cc(/C=C2\CCC(CN(C)C)C2=O)ccc1OC(=O)c1ccccc1 (centres undefined)

>  <Group label>
inactive

$$$$
>  <Compound>
CCOC(=O)c1nc2cc(C(F)(F)F)ccc2nc1Nc1ccc(C(=O)OC)s1

>  <Group label>
inactive

$$$$
>  <Compound>
COC(=O)C(=O)C(C(=O)C=C(C)C)C(=O)C(=O)Nc1ccc(Cl)cc1C (centres undefined)

>  <Group label>
inactive

$$$$
>  <Compound>
O=S(=O)(O)c1cc(O)c2c(/N=C\c3ccccc3O)cc(S(=O)(=O)O)cc2c1

>  <Group label>
inactive

$$$$
